# ASSAYED_TARGET: Phosphatidylinositol 5-phosphate 4-kinase type-2 alpha (Homo sapiens) (UniProt P48426)
# Sequence (P48426 whole entry, looked up): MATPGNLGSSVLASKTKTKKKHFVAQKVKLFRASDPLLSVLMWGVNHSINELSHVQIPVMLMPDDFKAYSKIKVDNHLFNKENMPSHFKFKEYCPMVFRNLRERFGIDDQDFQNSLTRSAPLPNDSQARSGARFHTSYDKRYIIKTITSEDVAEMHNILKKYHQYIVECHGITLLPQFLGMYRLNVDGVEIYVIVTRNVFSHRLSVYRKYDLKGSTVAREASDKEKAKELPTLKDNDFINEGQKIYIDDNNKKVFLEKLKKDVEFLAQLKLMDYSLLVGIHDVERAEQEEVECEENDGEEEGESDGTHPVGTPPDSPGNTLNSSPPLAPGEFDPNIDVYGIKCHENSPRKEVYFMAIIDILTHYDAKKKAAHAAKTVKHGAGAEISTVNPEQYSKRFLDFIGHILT
# TEST_PROTOCOL: qHTS for Inhibitors of phosphatidylinositol 5-phosphate 4-kinase (PI5P4K); further: value at the top dose of about 77 µM; on the % scale 0 is the no-effect control and ±100 the full control effect
# STATED_CONDITIONS: PI5P4Kalpha enzyme, ADP-Glo luminescence, 60 min; hits give low values
# Text: In addition to finding PI5P, we discovered the type II phosphatidylinositol 5-phosphate 4-kinase (PI5P4K) family (alpha, beta, gamma isoforms) that catalyze the conversion of PI5P to PI(4,5)P2. Alternatively, PI(4,5)P2 can also be synthesized through phosphatidylinositol-4-phosphate (PI4P) by the type I phosphatidylinositol 4-phosphate 5-kinases (PI4P5K). […]
Hit rate of the full screen: of about 330,000 compounds, about 4,100 (1.2%) were called active. Another 2% or so got no clear call; they are omitted. This excerpt belongs to a sample that is enriched for actives.
PARAMETER_MEASURED: max response (%)
Answers are plain numbers, in %.

Example compounds with recorded max response:
> print(dat)
                                   compound  unit.spec  readout.number
1  CC(C)Cc1ccc(-c2cc3nc(NCc4cccc(Cl)c4)ccn3n2)cc1          %            47.1
2         S=c1[nH]nc(COc2ccccc2)n1-c1ccccc1          %            2.36

Okay, here is my list. What is max response for each of these?
1. Cc1sc2nc(CSCC(=O)NC3CCCCC3)[nH]c(=O)c2c1C
2. CCCCC[C@@H]1C=C(C(=O)OCC)[C@H](c2ccccc2)N1S(=O)(=O)c1ccc(C)cc1
3. CC1=C(C(=O)N(C(C)C)C(C)C)CC(CC(=O)NCC2CCCCC2)C(=O)N1Cc1ccccc1 (centres undefined)
4. C#CCOCCOCCOCCNc1nc(N2CCN(C(=O)[C@H](C(C)C)n3cc(CCO)nn3)CC2)nc(N2CCN(C(=O)[C@H]([C@@H](C)CC)n3cc(CCCN=C(N)N)nn3)CC2)n1
5. O=C(CCCCCN1C(=O)c2cccc3cccc(c23)C1=O)NCc1ccco1
6. C#CCOCCOCCOCCNc1nc(N2CCN(C(=O)Cn3cc(CCO)nn3)CC2)nc(N2CCN(C(=O)Cn3cc(CCCN=C(N)N)nn3)CC2)n1

[A]
1: -13.2; 2: 8.7; 3: -7.86; 4: -3.39; 5: 0.75; 6: 1.27

State recorded max response for all listed compounds.
1. CCc1nc2ccc(C(=O)N(C)CCN(C)C)cn2c1N(CC)CCOC
2. CC(C)C1Cc2[nH][nH]c(=O)c2C(c2ccc(Cl)cc2)O1 (centres undefined)
3. CC1(C)OC(=O)C2=C(C[C@@H](C3CC3)O[C@H]2c2ccc(Cl)cc2)O1
4. O=C(Cc1ccc([N+](=O)[O-])cc1)N/N=C/c1ccco1

[A]
1: 2.65; 2: -8.68; 3: 8.12; 4: -5.81

I'm hoping you can list max response for every compound here, please.
1. Cc1ccc(S(=O)(=O)Oc2ccc(/C=N/NC(=O)c3ccncc3)cc2)cc1
2. CC1(C(=O)NCc2ccccc2)CN(S(C)(=O)=O)CC(=O)N1CC(F)(F)F (centres undefined)

[A]
3.82
-7.01

Below are some compounds; for each one, tell me its max response.
1. COc1ccc(OCc2n[nH]c(=S)n2N)cc1
2. CC1=NN(c2ccccc2)C(=O)C1C(=O)c1ccc([N+](=O)[O-])cc1 (centres undefined)
3. CC(C)N(Cc1nnc(-c2ccccc2Br)o1)C(=O)c1cc(Cl)nc2ccccc12
4. CSc1nnc(SCc2nc3sc(C(=O)O)c(C)c3c(=O)[nH]2)s1
5. Cc1sc2nc(CSCC(=O)Nc3c(Cl)cccc3Cl)[nH]c(=O)c2c1C

[A]
1: -58.2; 2: 0.85; 3: 9.3; 4: -79.5; 5: 1.38

Please supply max response for each of the following items, keeping them in order.
1. C[N+](C)(CCCCCC[N+](C)(C)CCCN1C(=O)c2cccc3cccc(c23)C1=O)CCCN1C(=O)c2cccc3cccc(c23)C1=O
2. O=C1C=C(NS(=O)(=O)c2ccccc2)C(=O)c2ccccc21
3. CCCC(=O)N1CCC1(C)C(=O)NCc1ccc(C(C)C)cc1 (centres undefined)
4. Cc1cccc(C)c1Cn1c(C)c(C(=O)NCc2cccc(Cl)c2)sc1=O
5. COC(=O)[C@]12CCCCC=C1N(Cc1ccc(Cl)cc1Cl)C(=O)[C@H](CC(=O)NCc1cccc3ccccc13)C2
6. CCCCn1nnnc1C(c1cccc(OC)c1OC)N1CCN(C/C=C/c2ccccc2)CC1 (centres undefined)
7. CCc1nc2c(OCCOc3ccccc3)cccn2c1N(C)C(=O)c1cccs1

[A]
1: -72.8; 2: 1.96; 3: -1.03; 4: 9.15; 5: 20.1; 6: 0.353; 7: -2.92

Provide reported max response for each item, in the same order as listed.
1. Cc1nn(CC(=O)N/N=C/c2ccc(F)cc2)c(C)c1[N+](=O)[O-]
2. Cc1ccc(S(=O)(=O)N2[C@@H](Cc3ccccc3)CO[C@H]2CC(=O)OCc2ccccc2)cc1
3. CCOC(=O)[C@]12CCCC=C1N(CCC1=CCCCC1)C(=O)[C@H](CC(=O)N1CCCCC1)C2
4. NC(c1ccccc1)c1csc(NC(=O)Nc2cccc(C(F)(F)F)c2)n1 (centres undefined)
5. O=C1[C@H]2[C@@H](c3ccc(C(F)(F)F)cc3)N[C@]3(CCCN(Cc4ccc(Cl)cc4)C3=O)[C@H]2C(=O)N1Cc1ccccc1

[A]
1: -2.33; 2: 4.77; 3: -3.48; 4: -16.7; 5: 6.21

The following compounds each have a reported value; give each one's max response.
1. COC(=O)C1(C(=O)OC)C[C@H](c2ccccc2)N(Cc2ccccc2OC)[C@@H]1c1ccccc1
2. O=C(C[C@H]1C[C@@H]2c3cc(NC(=O)C4CCC4)ccc3O[C@@H]2[C@H](CO)O1)NC1CCCCC1
3. COc1cc(/C=N/NC(=O)c2cc(C)n(-c3ccc(F)cc3)c2C)cc(OC)c1O
4. COc1cccc(NC(=O)CN(C)C(=O)c2cc(Cl)nc3ccccc23)c1
5. CC(C)N=C1CCCC1C(=S)SSC(=S)C1CCCC1=NC(C)C (centres undefined)
6. O=C(Cc1cccs1)Nc1nnc(SCc2ccc(F)cc2)s1
7. O=C1c2ccccc2C(=O)N1CCCCCCN1C(=O)c2ccccc2C1=O

[A]
[15.9, -3.63, -10.7, 0.592, -54.3, 6.84, 1.45]

[Q] Using the record for Cc1ccc(NC(=O)CC2S/C(=N/N=C3\CCCc4ccccc43)NC2=O)cc1 (centres undefined) , report its max response.
[A] 27.6

* * *

# ASSAYED_TARGET: Phosphatidylinositol 5-phosphate 4-kinase type-2 alpha (Homo sapiens) (UniProt P48426)
# TEST_PROTOCOL: qHTS for Inhibitors of phosphatidylinositol 5-phosphate 4-kinase (PI5P4K); further: value at the top dose of about 77 µM; on the % scale 0 is the no-effect control and ±100 the full control effect
# STATED_CONDITIONS: PI5P4Kalpha enzyme, ADP-Glo luminescence, 60 min; hits give low values
The campaign covered roughly 330,000 compounds. About 4,100 (1.2%) were called active. About 2% were inconclusive and are not listed. What follows is part of a selection rich in actives, with near analogues and random picks from the rest.
PARAMETER_MEASURED: max response (%)
One number for each entry, in %.

Reference set (10 entries):
> print(dat)
                                    compound                            assayed.target  parameter.measured  unit.spec  readout.number
 1  CC(C)(C)OC(=O)N1CCN(C(=O)c2[nH]c(C(F)(F)F)nc2-c2ccccc2)CC1  Phosphatidylinositol 5-phosphate 4-kinase type-2 alpha (Homo sapiens) (UniProt P48426)        max response          %            6.39
 2  NS(=O)(=O)c1ccc(-c2ccc(/C=C3\SC(=O)NC3=O)o2)cc1  Phosphatidylinositol 5-phosphate 4-kinase type-2 alpha (Homo sapiens) (UniProt P48426)        max response          %           -52.9
 3  CCC(C)CN1C(=O)CSCC1(C)C(=O)NCc1ccccc1 (stereo unspecified)  Phosphatidylinositol 5-phosphate 4-kinase type-2 alpha (Homo sapiens) (UniProt P48426)        max response          %           -2.56
 4  COc1ccc(-c2cc3ccc(OCc4nn[nH]n4)cc3oc2=O)cc1  Phosphatidylinositol 5-phosphate 4-kinase type-2 alpha (Homo sapiens) (UniProt P48426)        max response          %           -28.7
 5  CC(CNC(=O)c1ccc(Br)o1)NC(=O)c1ccc(Br)o1 (stereo unspecified)  Phosphatidylinositol 5-phosphate 4-kinase type-2 alpha (Homo sapiens) (UniProt P48426)        max response          %           -54.6
 6                 O=C(NCc1cccs1)c1ccc(Br)o1  Phosphatidylinositol 5-phosphate 4-kinase type-2 alpha (Homo sapiens) (UniProt P48426)        max response          %            4.81
 7     Cc1cc(Cl)ccc1-c1nc(NCCN(C)C)nc2ccsc12  Phosphatidylinositol 5-phosphate 4-kinase type-2 alpha (Homo sapiens) (UniProt P48426)        max response          %            2.25
 8  CC(C)C[C@H]1CNC(=S)N1C[C@H]1CCCN1C[C@H](Cc1ccc(O)cc1)N1C[C@H](Cc2ccc(O)cc2)N(CC2CCCCC2)C1=S  Phosphatidylinositol 5-phosphate 4-kinase type-2 alpha (Homo sapiens) (UniProt P48426)        max response          %           -6.15
 9           O=c1oc2cc(O)ccc2cc1-c1ccc(F)cc1  Phosphatidylinositol 5-phosphate 4-kinase type-2 alpha (Homo sapiens) (UniProt P48426)        max response          %           -58.1
10  CN1CCN(/N=C/c2ccc(-c3ccc([N+](=O)[O-])cc3)o2)CC1  Phosphatidylinositol 5-phosphate 4-kinase type-2 alpha (Homo sapiens) (UniProt P48426)        max response          %          -0.908

Now turn to the next compound.
[Q] Dear colleague, I am looking for the recorded max response of the following compound: "CN(C)C(=O)N=NC(=O)N(C)C"
[A] -58.3
